B1: TPR t1 (parent)
chain: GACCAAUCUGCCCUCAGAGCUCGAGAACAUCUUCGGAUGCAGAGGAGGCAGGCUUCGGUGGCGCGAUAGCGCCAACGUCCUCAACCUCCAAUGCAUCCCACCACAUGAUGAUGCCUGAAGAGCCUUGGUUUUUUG

Variants of: B1
assay remarks: polymerase ribozyme fitness, log enrichment relative to wild type (log ratio); higher = more active; in vitro selection for triplet polymerase activity
quantity: polymerase ribozyme fitness (log ratio)
// return a plain number; no unit text

Guide cases for polymerase ribozyme fitness (log ratio), answers given:
mutant label	value
G69U U133G	0.15
U67C C88A G117C	-5.9
U78A A95G C102A	-2.41

Fill in the blank: the reported polymerase ribozyme fitness (log ratio) of U32C C40G G57U G117C G120A is ____.
-6.56

Same question, C4U U38G U112A this time
-0.207

Query G57A C72A G120A next
-0.828
